- Tested target: Chitinase (Onchocerca volvulus)
- Sequence (Q25615 whole entry): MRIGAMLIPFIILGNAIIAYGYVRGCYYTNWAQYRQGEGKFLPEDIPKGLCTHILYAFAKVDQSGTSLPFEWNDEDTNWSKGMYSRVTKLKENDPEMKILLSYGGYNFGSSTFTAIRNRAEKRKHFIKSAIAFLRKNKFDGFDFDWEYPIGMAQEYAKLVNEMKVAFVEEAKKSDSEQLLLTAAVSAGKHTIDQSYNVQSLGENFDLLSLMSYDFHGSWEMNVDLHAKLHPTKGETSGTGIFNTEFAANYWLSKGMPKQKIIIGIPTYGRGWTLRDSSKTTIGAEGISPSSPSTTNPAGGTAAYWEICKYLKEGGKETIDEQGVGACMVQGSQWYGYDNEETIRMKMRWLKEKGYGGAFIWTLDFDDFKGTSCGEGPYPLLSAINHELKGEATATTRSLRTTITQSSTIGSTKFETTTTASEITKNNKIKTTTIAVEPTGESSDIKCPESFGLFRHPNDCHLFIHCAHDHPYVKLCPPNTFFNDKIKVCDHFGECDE
Measurement kind: pIC50
The meaning of pIC50 here: minus log10 of the concentration in molar units.

**Query** Let me know recorded pIC50 for CN(C(=O)c1cc(I)cc(I)c1O)c1ccc(Oc2ccccc2)cc1 , thanks.
**Result** 5.74

**Query** Read the entry COc1c(I)cc(I)cc1C(=O)Nc1ccc2ccccc2c1 and write its reported pIC50.
**Result** 6.05

**Query** Specify pIC50 for O=C(Nc1ccc(Oc2cccc(Cl)c2)cc1)c1cc(I)cc(I)c1O and stop.
**Result** 5.76

**Query** Could you please provide reported pIC50 for O=C(Nc1ccc(-c2ccccc2)cc1)c1cc(I)cc(I)c1O ? Thanks!
**Result** 6.33

**Query** Give pIC50 for O=C(Nc1ccc(Oc2ccc(F)cc2)cc1)c1cc(I)cc(I)c1O
**Result** 5.80

**Query** // Input: O=C(Nc1ccc(Oc2ccccc2)cc1)c1cc(I)cc(I)c1O . Output its pIC50 only.
**Result** 5.70

**Query** Consider the molecule O=C(Nc1ccc(Oc2ccc(Cl)cc2)c(Cl)c1)c1cc(I)cc(I)c1O [RAFOXANIDE] . State its measured pIC50.
**Result** 6.47

**Query** Provide measured pIC50 value, entry: O=C(Nc1ccc2ccccc2c1)c1cc(I)cc(I)c1
**Result** 5.89

**Query** Specify reported pIC50 for the molecule shown: O=C(Nc1ccc(Oc2ccc(Cl)cc2)cc1)c1cc(I)cc(I)c1
**Result** 6.06

**Query** Read the entry O=C(Nc1ccc(Oc2ccccc2)cc1)c1cc(I)cc(I)c1 and write its reported pIC50.
**Result** 5.97

**Query** Quote pIC50 reported for Cc1ccc(-c2ccc(NC(=O)c3cc(I)cc(I)c3O)cc2)cc1 please.
**Result** 6.00

Just for reference, ChEMBL document CHEMBL3297707 is where these values come from.
